experiment: small molecules captured by biotinylated probe aFSTL3 – biochemical, small-molecule microarray, fluorescence 635/667, stem cell growth factor project, primary screen (AID 1064); details: higher = more signal;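 further: measures binding of the biotinylated anti-FSTL3 antibody to printed compounds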
Measured Quantity: composite z-score
The answer should be a number; do not append a unit.

INSERT INTO results (molecule, recorded_result) VALUES
  ('CC(C)=CCCC(C)=CC(O)C1C=CC2C(=O)N(c3ccccc3)C(=O)C2N1Nc1ccc([N+](=O)[O-])cc1 (centres undefined)', -0.265),
  ('C=CC[C@]1(C(=O)N2CCOCC2)N=C(c2ccc(OCCCO)cc2)O[C@H]1c1ccccc1CN=[N+]=[N-]', -0.0635),
  ('C=CCC(OC(C)=O)[C@@H]1[C@@H](N(Cc2ccc(-c3cccc(C(F)(F)F)c3)o2)C(=O)c2cccc3ccccc23)c2cc(OCCCO)ccc2N1C(=O)c1ccc(-c2ccccc2)cc1 (some centres undefined)', -0.188);

Any idea what composite z-score was measured for CC(C)N1CC=CC23O[C@@H]4C=CCOC(=O)[C@@H]4[C@H]2C(=O)N(CCCCCCO)[C@@H]3C1=O (some centres undefined) ?
-0.895

Any idea what composite z-score was measured for "CN(C)C(=O)[C@@]1(CCS(=O)(=O)c2ccccc2)N=C(c2ccc(OCCCO)cc2)O[C@H]1c1ccccc1CN=[N+]=[N-]" ?
-0.323

Any idea what composite z-score was measured for "COCCOC(=O)N1C(=O)[C@@]2(c3ccccc31)[C@H](c1ccccc1OCCO)N1[C@H](c3ccccc3)[C@H](c3ccccc3)OC(=O)[C@H]1[C@@H]2C(=O)N1CCc2cc(OC)c(OC)cc2C1" ?
0.184

Any idea what composite z-score was measured for "C=C(COC)/C(=C/C[C@@H](OC(=O)c1ccncc1)c1cccc(OCCO)c1)c1cc(C(=O)OC)ccc1OC" ?
-0.278

Any idea what composite z-score was measured for CC1(C)[C@@H]2CC(C(O)C3C=CC4C(=O)N(c5ccccc5)C(=O)C4N3Nc3ccccc3F)=C[C@@H]1C2 (some centres undefined) ?
-0.168

Any idea what composite z-score was measured for "CC(C)N1C(=O)c2ccccc2[C@](C)(C(=O)O)[C@@H]1c1ccc(CO)cc1" ?
0.513

---

system: Human papillomavirus type 1a protein E7 (residues 44-93); experiment: small molecules binding HPV E7 44-93 – biochemical, small-molecule microarray, residues 44-93, 635 nm fluorescence, primary screen (AID 1108); conditions: fluorescence 635 nm, higher = more signal;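 further: E7 fragment applied at 1 µg/mL in TBST for 1 h at 4 C; score combines spot fluorescence with its signal to noise ratio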
composite z-score values for the compounds below.

INSERT INTO results (compound, target_under_test, recorded_result) VALUES
  ('C#CCNS(=O)(=O)N(C)C', 'Human papillomavirus type 1a protein E7 (residues 44-93)', 0.638),
  ('COc1ccc([Si](C)(C)[C@@H]2[C@@H](CCO)O[C@]3(C(=O)N(Cc4ccccc4)c4ccc(N5CCCCC5=O)cc43)[C@H]2C)cc1', 'Human papillomavirus type 1a protein E7 (residues 44-93)', 1.4),
  ('COCCOC(=O)N1C(=O)[C@@]2(c3cc(C#CCCO)ccc31)[C@H](c1ccc(OCCO)cc1)N1[C@H](c3ccccc3)[C@H](c3ccccc3)OC(=O)[C@H]1[C@@H]2C(=O)N1CCc2cc(OC)c(OC)cc2C1', 'Human papillomavirus type 1a protein E7 (residues 44-93)', 1.39),
  ('CCCc1cc2c(n1Cc1ccc(OC)cc1)C(C)C1CN(C(=O)c3ccccc3)C(C)(C(=O)OC)C21 (centres undefined)', 'Human papillomavirus type 1a protein E7 (residues 44-93)', 0.247);

Any idea what composite z-score was measured for "COc1ccc(C(=O)Nc2ccc3c(c2)[C@]2(O[C@@H](CCO)[C@H]([Si](C)(C)c4ccc(OC)cc4)[C@H]2C)C(=O)N3Cc2ccccc2)cc1" ?
0.958

Any idea what composite z-score was measured for "O=C1c2ccccc2[C@](Cc2ccccc2I)(C(=O)NCC(F)(F)F)[C@H](c2ccc(CO)cc2)N1Cc1ccccc1" ?
1.42

Any idea what composite z-score was measured for CCCCC(CC)C(O)C1C=CC2C(=O)NC(=O)C2N1Nc1ccccn1 (centres undefined) ?
1.46

Any idea what composite z-score was measured for "O=C1C[C@@](C(=O)NCc2ccccc2)(c2ccc([N+](=O)[O-])cc2)[C@@H](c2ccc(CO)cc2I)N1C1CCCCC1" ?
1.14

Any idea what composite z-score was measured for CC(C)C(CO)N1C(=O)[C@@H]2[C@H]3C(=O)OCC=C[C@H]3OC23C=CCN(CCN2CCOCC2)C(=O)[C@@H]13 (some centres undefined) ?
-0.0831

The origin of these recorded values is PubChem BioAssay.
